Form field: composite z-score (one value per entry).
target: Concanavalin-A (Canavalia ensiformis); experiment: compounds binding concanavalin A lectin – biochemical, small-molecule microarray, Alexa647 label, 635 nm, artefact control for SMM control protein annotation, primary screen (AID 1127); details: ConA-A647 binding fluorescence, higher = more signal;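 further: z combines 667 nm emission intensity with signal-to-noise across three replicate slides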
Just the number, please.

- molecule: "COCCCNC(=O)[C@@H]1c2ccccc2C(=O)N(Cc2ccccc2)[C@H]1c1ccc(CO)cc1"
  composite z-score: 0.458
- molecule: "COC(=O)[C@]1(Cc2ccccc2)N=C(c2ccc(OCCCO)cc2)O[C@@H]1c1ccccc1N=[N+]=[N-]"
  composite z-score: 0.666
- molecule: "O=C(O)[C@H]1C[C@H]2C(=O)N3CCC[C@H]3C(=O)N2[C@H]1c1ccc(O)cc1"
  composite z-score: 0.298
- molecule: "COCCOC(=O)N1C(=O)[C@@]2(c3ccccc31)[C@H](c1ccc(OCCO)cc1)N1[C@H](c3ccccc3)[C@H](c3ccccc3)OC(=O)[C@H]1[C@@H]2C(=O)N1CCc2cc(OC)c(OC)cc2C1"
  composite z-score: 1.16
- molecule: "COc1cc2c(cc1O)C(c1cccs1)N(Cc1cccc(OC(F)(F)F)c1)CC2 (stereo not given)"
  composite z-score: 0.127
- molecule: "C=CCN1C(=O)[C@]2(O[C@H](CCO)[C@@H]([Si](C)(C)c3ccc(OC)cc3)[C@@H]2C)c2cc(N(C=O)c3ccccc3)ccc21"
  composite z-score: 0.497
- molecule: "O=C(CS)NCCCCCNC(=O)[C@@H]1C[C@@H]2C(=O)NCC(=O)N2[C@@H]1c1ccc(O)cc1"
  composite z-score: 0.53
- molecule: "CCCC[C@H]1C[C@@H]1[C@@H]1N(P(=O)(c2ccccc2)c2ccccc2)C[C@@](O)(c2ccccc2)CC12CC2"
  composite z-score: 0.499

Reported composite z-score of "COc1ccc([Si](C)(C)[C@H]2[C@H](CC(=O)N3CCC[C@H]3CO)O[C@@]3(C(=O)N(Cc4cccc(N5CCOC5=O)c4)c4ccccc43)[C@@H]2C)cc1" : 0.996

Reported composite z-score of "COC(=O)c1c(CC[C@@H](CO)NC(=O)NCCc2c[nH]c3ccccc23)oc(C(=O)Cc2ccccc2)c1C(=O)OC" : 0.467

* * *

tested on: Inhibin beta A chain (activin A); experiment: small molecules binding activin A – biochemical, small-molecule microarray, 635 nm fluorescence scan, primary screen (AID 1107); details: INHBA, higher = more signal;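 further: mouse activin A protein probed at 4.33 µg/mL on printed slides; score merges bound-protein fluorescence near 667 nm with spot signal-to-noise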
Binary call on composite z-score: YES from 0.3 upward, NO beneath that.

- compound: "[N-]=[N+]=NCc1ccccc1C[C@@]1(C(=O)NCC(O)CO)N=C(c2ccc(OCCCO)cc2)O[C@@H]1c1ccccc1 (stereo not given in full)"
  label: "YES"
- compound: "O=C1OCCC=C[C@H]2OC34C=CCN(c5ccc(Cl)cc5)C(=O)[C@H]3N(CCCO)C(=O)[C@@H]4C12 (stereo not given in full)"
  label: "YES"
- compound: "CC(C)Cc1ccc(CN2CC[C@@H](N)C2)cc1"
  label: "YES"
- compound: "COCCCNC(=O)[C@@H]1c2ccccc2C(=O)N(Cc2ccccc2OC)[C@H]1c1ccc(CO)cc1"
  label: "YES"
- compound: "COc1ccc(C(=O)Nc2cccc(CN3C(=O)[C@]4(O[C@H](CCn5cc(CCO)nn5)[C@@H]([Si](C)(C)c5ccc(OC)cc5)[C@@H]4C)c4ccccc43)c2)cc1"
  label: "YES"

Could you now consider this next compound?
Task: Decide: composite z-score of "CC(C)[Si](C#CCCCC#N)(Oc1ccccc1Br)C(C)C" >= 0.3?
Result: YES

* * *

molecular target: Pro-neuregulin-1, membrane-bound isoform (Homo sapiens); assay: small molecules binding neuregulin-1 protein – biochemical, small-molecule microarray, fluorescence 635/667, psychiatric disease protein project, primary screen (AID 1075); details: NRG1 binding, 635 nm fluorescence, higher = more signal;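 further: score combines 667 nm spot fluorescence with signal to noise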
parameter: composite z-score
Just the number, please.

Reported composite z-score of "COC(=O)[C@@]1(Cc2ccc(OC)cc2)[C@H]2c3cc(C(=O)N4CCCC4)n(CCSCCO)c3C[C@H]2CN1C(=O)c1ccccc1" : 1.86

Reported composite z-score of "COC(=O)[C@]1(CCC(=O)OC(C)(C)C)N=C(c2ccc(OCCCO)cc2)O[C@@H]1c1ccccc1" : 0.791

Reported composite z-score of "COCCCNC(=O)[C@@]1(Cc2ccccc2CN=[N+]=[N-])N=C(c2ccc(OCCCO)cc2)O[C@H]1c1ccccc1CN=[N+]=[N-]" : 1.96

Reported composite z-score of "C=C(CCCC)/C(=C/C[C@H](OC(C)=O)c1ccc(OCCO)cc1)c1cnc2ccccc2c1" : 1.32

* * *

target: Neurogenic locus notch homolog protein 3 (Homo sapiens) (UniProt Q9UM47); test: small molecules binding NOTCH3 protein – biochemical, 635/667 nm fluorescence, primary screen (AID 1096); details: small-molecule microarray, 635 nm fluorescence, higher = more signal
Sequence (Q9UM47 whole entry, looked up): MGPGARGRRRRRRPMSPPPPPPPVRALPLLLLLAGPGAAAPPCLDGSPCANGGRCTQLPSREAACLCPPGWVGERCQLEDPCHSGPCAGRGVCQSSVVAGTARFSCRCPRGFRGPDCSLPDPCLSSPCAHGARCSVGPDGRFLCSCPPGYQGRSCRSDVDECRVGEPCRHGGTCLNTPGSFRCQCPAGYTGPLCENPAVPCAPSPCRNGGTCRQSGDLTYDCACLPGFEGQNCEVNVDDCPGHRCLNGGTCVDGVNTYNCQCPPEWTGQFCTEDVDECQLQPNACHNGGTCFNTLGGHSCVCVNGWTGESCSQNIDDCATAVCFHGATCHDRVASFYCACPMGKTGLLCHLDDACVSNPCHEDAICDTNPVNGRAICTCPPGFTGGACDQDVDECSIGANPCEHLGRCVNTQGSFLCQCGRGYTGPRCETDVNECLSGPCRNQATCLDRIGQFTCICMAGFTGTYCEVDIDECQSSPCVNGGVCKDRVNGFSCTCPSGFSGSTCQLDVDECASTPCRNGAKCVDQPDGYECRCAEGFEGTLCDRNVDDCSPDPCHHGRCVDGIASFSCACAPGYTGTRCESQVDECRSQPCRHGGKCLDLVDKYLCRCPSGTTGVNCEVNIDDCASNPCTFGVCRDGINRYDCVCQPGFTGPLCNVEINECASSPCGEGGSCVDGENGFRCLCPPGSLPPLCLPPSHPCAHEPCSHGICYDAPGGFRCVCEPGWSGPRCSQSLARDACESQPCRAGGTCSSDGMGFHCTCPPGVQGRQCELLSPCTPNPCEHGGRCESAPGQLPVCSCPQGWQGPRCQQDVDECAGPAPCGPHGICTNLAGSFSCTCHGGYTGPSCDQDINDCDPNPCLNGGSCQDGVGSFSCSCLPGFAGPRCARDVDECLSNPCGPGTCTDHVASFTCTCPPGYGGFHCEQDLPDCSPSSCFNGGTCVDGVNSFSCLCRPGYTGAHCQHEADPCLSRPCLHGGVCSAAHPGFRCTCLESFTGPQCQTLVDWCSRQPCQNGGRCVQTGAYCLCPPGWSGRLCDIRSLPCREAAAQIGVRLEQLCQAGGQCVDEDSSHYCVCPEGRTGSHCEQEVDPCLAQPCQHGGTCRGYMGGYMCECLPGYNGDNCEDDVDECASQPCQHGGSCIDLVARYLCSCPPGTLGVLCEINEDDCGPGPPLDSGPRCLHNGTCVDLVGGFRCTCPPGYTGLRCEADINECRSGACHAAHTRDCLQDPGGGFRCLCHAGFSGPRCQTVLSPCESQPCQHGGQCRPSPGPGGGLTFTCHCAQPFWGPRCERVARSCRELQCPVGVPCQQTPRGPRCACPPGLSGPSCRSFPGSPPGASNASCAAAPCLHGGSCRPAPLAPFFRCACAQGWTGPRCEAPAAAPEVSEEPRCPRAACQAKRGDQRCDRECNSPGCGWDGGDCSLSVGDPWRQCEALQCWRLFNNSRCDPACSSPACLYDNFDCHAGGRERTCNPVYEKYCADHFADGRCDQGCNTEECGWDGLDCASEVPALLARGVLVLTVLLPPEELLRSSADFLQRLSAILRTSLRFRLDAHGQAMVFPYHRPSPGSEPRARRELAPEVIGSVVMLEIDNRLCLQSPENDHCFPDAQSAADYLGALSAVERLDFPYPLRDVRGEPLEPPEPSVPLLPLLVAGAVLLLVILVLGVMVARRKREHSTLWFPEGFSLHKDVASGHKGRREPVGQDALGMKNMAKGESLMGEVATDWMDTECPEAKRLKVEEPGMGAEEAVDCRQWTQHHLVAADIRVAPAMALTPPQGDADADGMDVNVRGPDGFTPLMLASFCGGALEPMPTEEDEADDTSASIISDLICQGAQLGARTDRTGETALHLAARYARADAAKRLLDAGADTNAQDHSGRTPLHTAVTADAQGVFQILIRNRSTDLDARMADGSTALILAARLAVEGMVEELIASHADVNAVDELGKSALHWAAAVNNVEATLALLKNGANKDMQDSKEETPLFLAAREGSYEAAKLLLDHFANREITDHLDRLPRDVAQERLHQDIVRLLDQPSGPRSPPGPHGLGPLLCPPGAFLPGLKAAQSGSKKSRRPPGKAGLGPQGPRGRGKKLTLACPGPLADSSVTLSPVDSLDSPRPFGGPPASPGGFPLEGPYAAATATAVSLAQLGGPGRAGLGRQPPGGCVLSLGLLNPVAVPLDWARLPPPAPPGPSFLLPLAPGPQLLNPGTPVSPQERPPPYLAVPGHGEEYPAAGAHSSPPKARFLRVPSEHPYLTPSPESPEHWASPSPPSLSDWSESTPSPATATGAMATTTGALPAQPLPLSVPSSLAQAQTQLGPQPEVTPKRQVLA
Binary call on composite z-score: yes from 0.8 upward, no beneath that.

Previously resolved entries follow.
- compound: "CC#CC(=O)Oc1ccc(Br)cc1C=CC(=O)OCC"
  label: "no"
- compound: "COCCCNC(=O)[C@@H]1c2ccccc2C(=O)N(Cc2ccccc2OC)[C@H]1c1ccc(CO)cc1"
  label: "yes"

Task: Decide: composite z-score of "O=C1O[C@H](c2ccccc2)[C@H](c2ccccc2)N2[C@H]1[C@@H](C(=O)NC[C@H](O)c1ccccc1)[C@]1(C(=O)Nc3ccccc31)[C@H]2c1ccc(O)cc1" >= 0.8?
Result: no

Task: Decide: composite z-score of "COC(=O)c1c2oc(c1C(=O)OC)C(=O)NC1(CCCCC1)c1cn(nn1)C[C@H](Cc1ccccc1)NC(=O)N[C@H](CO)CC2" >= 0.8?
Result: no

Task: Decide: composite z-score of "COC(=O)c1c2oc(c1C(=O)OC)C(=O)N[C@@H](C(C)C)Cn1cc(nn1)C1(CCCCC1)NC(=O)N[C@H](CO)CC2" >= 0.8?
Result: no

Task: Decide: composite z-score of COc1ccc(C(O)C2C=CC3C(=O)N(C)C(=O)C3N2NC(=O)OC(C)(C)C)c2ccccc12 (centres undefined) >= 0.8?
Result: yes

Task: Decide: composite z-score of "CC(C)NC(=O)[C@@]1(Cc2ccccc2I)c2ccccc2C(=O)N(Cc2ccccc2Cl)[C@H]1c1ccc(CO)cc1" >= 0.8?
Result: yes

Task: Decide: composite z-score of O=C1C2C=CC(C(O)c3ccc(-c4ccccc4)s3)N(Nc3ccccc3)C2C(=O)N1c1ccccc1 (centres undefined) >= 0.8?
Result: yes

Task: Decide: composite z-score of "COCCOC(=O)N1C(=O)[C@@]2(c3ccccc31)[C@H](c1ccc(OCCO)cc1)N1[C@H](c3ccccc3)[C@H](c3ccccc3)OC(=O)[C@H]1[C@@H]2C(=O)N1CCc2cc(OC)c(OC)cc2C1" >= 0.8?
Result: yes

* * *

target: Neurogenic locus notch homolog protein 3 (Homo sapiens) (UniProt Q9UM47); assay: small molecules binding NOTCH3 protein – biochemical, 635/667 nm fluorescence, primary screen (AID 1096); settings: small-molecule microarray, 635 nm fluorescence, higher = more signal
Binary call on composite z-score: Fulfilled from 0.4 upward, Not fulfilled beneath that.

Task: Decide: composite z-score of "CN(C)CCCCNC(=O)[C@@H]1C[C@@H]2C(=O)N[C@@H](CCCCN)C(=O)N2[C@@H]1c1ccc(O)cc1" >= 0.4?
Result: Not fulfilled

Task: Decide: composite z-score of "CCOC(=O)C1=CC[C@H]2C(=O)N(c3ccccc3)C(=O)[C@@H]12" >= 0.4?
Result: Fulfilled

Task: Decide: composite z-score of O=C1C2C=CC(C(O)c3cc(C(F)(F)F)cc(C(F)(F)F)c3)N(Nc3ccccc3)C2C(=O)N1c1ccccc1 (stereo not drawn) >= 0.4?
Result: Fulfilled

Task: Decide: composite z-score of "C=C(CCCC)C(=O)CC[C@H](OC(=O)c1cccnc1)c1ccc(OCCO)cc1" >= 0.4?
Result: Not fulfilled

Task: Decide: composite z-score of "CCCNC(=O)[C@@H]1c2ccccc2C(=O)N(Cc2ccccc2OC)[C@H]1c1ccc(CO)cc1" >= 0.4?
Result: Fulfilled

Task: Decide: composite z-score of "CCCCC(=C=CC[C@@H](O)c1ccc(CO)o1)CCO" >= 0.4?
Result: Not fulfilled

Task: Decide: composite z-score of "CO[C@H]1O[C@H](CO)[C@@H](OC(=O)Nc2ccc(Br)cc2)[C@@H]2OC(=O)[C@H](Cc3cccc(Br)c3)C/C=C/C[C@@H](Cc3cccc(Br)c3)C(=O)O[C@@H]12" >= 0.4?
Result: Fulfilled

* * *

system: Human papillomavirus type 1a protein E7 (residues 44-93); assay: small molecules binding HPV E7 44-93 – biochemical, small-molecule microarray, residues 44-93, 635 nm fluorescence, primary screen (AID 1108); settings: fluorescence 635 nm, higher = more signal;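 further: E7 fragment applied at 1 µg/mL in TBST for 1 h at 4 C; score combines spot fluorescence with its signal to noise ratio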
parameter: composite z-score
Just the number, please.

Consider the following illustrative entries.
- compound: "CCCCCN1CC=CC23O[C@@H]4C=CCOC(=O)[C@@H]4[C@H]2C(=O)N(C(C)CO)[C@@H]3C1=O (stereo not given in full)"
  assay system: "Human papillomavirus type 1a protein E7 (residues 44-93)"
  composite z-score: -0.967
- compound: "COC(=O)c1c2oc(c1C(=O)OC)C(=O)NC1(CCCCC1)c1cn(nn1)C[C@H](Cc1ccccc1)NC(=O)N[C@H](CO)CC2"
  assay system: "Human papillomavirus type 1a protein E7 (residues 44-93)"
  composite z-score: 0.973
- compound: "CN(C)C(=O)[C@]1(Cc2ccccc2)N=C(c2ccc(OCCCO)cc2)O[C@@H]1c1ccccc1N=[N+]=[N-]"
  assay system: "Human papillomavirus type 1a protein E7 (residues 44-93)"
  composite z-score: 1.4

Reported composite z-score of "CCOC(=O)C[C@H]1[C@H](OC(=O)c2ccc(-c3ccccc3)cc2)[C@@H](NC(=O)c2ccccc2)c2cc(OCCCO)ccc2N1C(=O)c1ccc2ccccc2n1" : 1.29
